System: UniProt Q9Y5Z0
Run Description: BACE-2 Assay (BACE-HTRF assay)
Format: biochemical
Run Conditions: Ki calculated from IC50 using the Cheng-Prusoff equation; QSY7-EISEVNLDAEFC-Eu-amide substrate, pH 5.0; read-out: BACE2 Ki
pKi: −log10 of the molar value.
Observed Property: pKi

The examples below pair each entry with its known result.
1) CN1C(=N)N[C@](C)(c2cc(NC(=O)c3ccc(F)cn3)ccc2F)[C@]2(CCN(Cc3cncnc3)C2)S1(=O)=O: 8.15
2) CN1C(=N)N[C@](C)(c2cc(NC(=O)c3ccc(F)cn3)ccc2F)[C@]2(CCN(Cc3cscn3)C2)S1(=O)=O: 8.30

P = CN1C(=N)N[C@](C)(c2cc(NC(=O)c3ccc(F)cn3)ccc2F)[C@]2(CCN(Cc3cnn(C)c3)C2)S1(=O)=O
Q = CN1C(=N)N[C@](C)(c2cc(NC(=O)c3ccc(F)cn3)ccc2F)[C@@]2(CCN(S(=O)(=O)c3ccccc3)C2)S1(=O)=O
### Prompt Between P and Q , which one has the lower reported pKi value? Your choice should be expressed through its label.
### Response P

###

System: purified human autoBACE-2 (Homo sapiens (Human), UniProt Q9Y5Z0)
Sequence (Q9Y5Z0 63-473 limits assumed): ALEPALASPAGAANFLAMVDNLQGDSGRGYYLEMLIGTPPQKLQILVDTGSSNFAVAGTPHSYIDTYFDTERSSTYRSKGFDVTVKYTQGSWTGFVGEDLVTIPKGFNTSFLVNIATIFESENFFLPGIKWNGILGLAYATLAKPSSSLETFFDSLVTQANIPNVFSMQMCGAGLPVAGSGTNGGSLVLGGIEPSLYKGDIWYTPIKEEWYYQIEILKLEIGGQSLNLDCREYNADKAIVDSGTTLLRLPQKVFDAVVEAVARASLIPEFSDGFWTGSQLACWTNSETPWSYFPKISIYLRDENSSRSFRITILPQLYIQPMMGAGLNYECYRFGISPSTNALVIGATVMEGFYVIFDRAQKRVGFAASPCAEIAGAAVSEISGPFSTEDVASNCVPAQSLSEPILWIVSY
Run Description: BACE-2 Assay (BACE-HTRF assay)
Format: biochemical
Run Conditions: Ki calculated from IC50 using the Cheng-Prusoff equation; QSY7-EISEVNLDAEFC-Eu-amide substrate, pH 5.0; read-out: BACE2 Ki
pKi: −log10 of the molar value.
Observed Property: pKi

1) COc1ccc(C(=O)Nc2ccc(F)c([C@@]3(C)NC(=N)N(C)S(=O)(=O)[C@@]34CCN(Cc3cnco3)C4)c2)nc1: 8.05

A = CN1C(=N)N[C@](C)(c2cc(NC(=O)c3ccc(F)cn3)ccc2F)[C@]2(CCN(S(=O)(=O)CC3CCCO3)C2)S1(=O)=O (stereo partly drawn)
B = CCCCN1CC[C@@]2(C1)[C@@](C)(c1cc(NC(=O)c3ccc(F)cn3)ccc1F)NC(=N)N(C)S2(=O)=O
### Prompt Which value of pKi is greater, the one for A or the one for B ? Your choice should be expressed through its label.
### Response B
(B: 8.52, A: 8.00)

###

System: purified human autoBACE-2 (Homo sapiens (Human))
Run Description: BACE-2 Assay (BACE-HTRF assay)
Format: biochemical
Run Conditions: Ki calculated from IC50 using the Cheng-Prusoff equation; QSY7-EISEVNLDAEFC-Eu-amide substrate, pH 5.0; read-out: BACE2 Ki
Observed Property: Ki (nM)

The examples below pair each entry with its known result.
1) COc1ccc(C(=O)Nc2ccc(F)c([C@@]3(C)NC(=N)N(C)S(=O)(=O)[C@@]34CCN(CC3CC3)C4)c2)nc1: 7
2) CN1C(=N)N[C@](C)(c2cc(NC(=O)c3ccc(F)cn3)ccc2F)[C@]2(CCN(CC3CC3)C2)S1(=O)=O: 5

P = CN1C(=N)N[C@](C)(c2cc(NC(=O)c3ccc(F)cn3)ccc2F)[C@]2(CCN(Cc3cocn3)C2)S1(=O)=O
Q = CN1C(=N)N[C@](C)(c2cc(NC(=O)c3ccc(F)cn3)ccc2F)[C@]2(CCN(Cc3ccncc3)C2)S1(=O)=O
### Prompt Which value of Ki is greater, the one for P or the one for Q ? Your choice should be expressed through its label.
### Response Q
(Q: 9 nM, P: 5 nM)

###

System: soluble human BACE1 catalytic domain (Homo sapiens (Human), UniProt P56817)
Sequence (P56817 75-416): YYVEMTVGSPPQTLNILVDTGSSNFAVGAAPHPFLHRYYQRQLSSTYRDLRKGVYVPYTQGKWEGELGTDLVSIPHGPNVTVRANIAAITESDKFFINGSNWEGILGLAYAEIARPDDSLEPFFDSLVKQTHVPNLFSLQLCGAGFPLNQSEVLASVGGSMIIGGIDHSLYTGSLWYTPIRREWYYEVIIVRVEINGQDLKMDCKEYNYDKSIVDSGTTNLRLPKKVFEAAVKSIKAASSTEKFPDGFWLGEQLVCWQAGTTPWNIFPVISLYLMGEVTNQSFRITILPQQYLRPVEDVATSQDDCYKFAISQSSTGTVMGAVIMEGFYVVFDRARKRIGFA
Run Description: BACE1 HTRF FRET Assay
Format: biochemical
Run Conditions: Ki calculated from IC50 using the Cheng-Prusoff equation; QSY7-APPswe-Eu substrate, pH 5.0
pKi: −log10 of the molar value.
Observed Property: pKi

1) CN1C(=N)N[C@](C)(c2cc(NC(=O)c3ccc(F)cn3)ccc2F)[C@]2(CCN(Cc3cnco3)C2)S1(=O)=O: 8.40

P = CN1C(=N)N[C@](C)(c2cc(NC(=O)c3ccc(F)cn3)ccc2F)[C@]2(CCN(CC3CC3)C2)S1(=O)=O
Q = CN1C(=N)N[C@](C)(c2cc(NC(=O)c3ccc(F)cn3)ccc2F)[C@]2(CCN(Cc3cnn(C)c3)C2)S1(=O)=O
R = COCC(=O)Nc1ccc(F)c([C@@]2(C)NC(=N)N(C)S(=O)(=O)[C@@]23CCN(Cc2ccccc2)C3)c1
### Prompt Output the entries ranked by pKi from maximum down to minimum. List labels; respect the requested ordering.
### Response P, Q, R
(P: 8.70, Q: 8.40, R: 7.66)

I = COc1ccc(C(=O)Nc2ccc(F)c([C@@]3(C)NC(=N)N(C)S(=O)(=O)[C@@]34CCN(Cc3cnn(C)c3)C4)c2)nc1
II = COc1ccc(C(=O)Nc2ccc(F)c([C@@]3(C)NC(=N)N(C)S(=O)(=O)[C@@]34CCN(Cc3cccnc3)C4)c2)nc1
### Prompt Which value of pKi is greater, the one for I or the one for II ? Your choice should be expressed through its label.
### Response II
(II: 8.70, I: 8.40)

P = COC1CC(CN2CC[C@@]3(C2)[C@@](C)(c2cc(NC(=O)c4ccc(F)cn4)ccc2F)NC(=N)N(C)S3(=O)=O)C1 (stereo partly drawn)
Q = CN1C(=N)N[C@](C)(c2cc(NC(=O)c3ccc(F)cn3)ccc2F)[C@]2(CCN(Cc3cscn3)C2)S1(=O)=O
### Prompt Between P and Q , which one has the lower reported pKi value? Your choice should be expressed through its label.
### Response P

###

System: purified human autoBACE-2 (Homo sapiens (Human))
Run Description: BACE-2 Assay (BACE-HTRF assay)
Format: biochemical
Run Conditions: Ki calculated from IC50 using the Cheng-Prusoff equation; QSY7-EISEVNLDAEFC-Eu-amide substrate, pH 5.0; read-out: BACE2 Ki
pKi: −log10 of the molar value.
Observed Property: pKi

A = CN1C(=N)N[C@](C)(c2cc(NC(=O)c3ccc(F)cn3)ccc2F)[C@]2(CCN(Cc3cccnc3)C2)S1(=O)=O
B = COc1ccc(C(=O)Nc2ccc(F)c([C@@]3(C)NC(=N)N(C)S(=O)(=O)[C@@]34CCN(Cc3cccnc3)C4)c2)nc1
### Prompt Between A and B , which one has the lower reported pKi value? Your choice should be expressed through its label.
### Response B

###

System: soluble human BACE1 catalytic domain (Homo sapiens (Human))
pKi: −log10 of the molar value.
Observed Property: pKi

1. COc1ccc(C(=O)Nc2ccc(F)c([C@@]3(C)NC(=N)N(C)S(=O)(=O)[C@@]34CCN(Cc3cscn3)C4)c2)nc1: 8.52

1 = CN1C(=N)N[C@](C)(c2cc(NC(=O)c3ccc(F)cn3)ccc2F)[C@]2(CCN(Cc3cocn3)C2)S1(=O)=O
2 = CN1C(=N)N[C@](C)(c2cc(NC(=O)c3ccc(F)cn3)ccc2F)[C@@]2(CCN(S(=O)(=O)c3ccccc3)C2)S1(=O)=O
3 = CN1C(=N)N[C@](C)(c2cc(NC(=O)c3ccc(F)cn3)ccc2F)[C@]2(CCN(Cc3cncnc3)C2)S1(=O)=O
### Prompt Output the entries ranked by pKi from maximum down to minimum. List labels; respect the requested ordering.
### Response 1, 3, 2
(1: 8.70, 3: 8.40, 2: 7.80)

###

System: purified human autoBACE-2 (Homo sapiens (Human))
Run Description: BACE-2 Assay (BACE-HTRF assay)
Type: biochemical
Run Conditions: Ki calculated from IC50 using the Cheng-Prusoff equation; QSY7-EISEVNLDAEFC-Eu-amide substrate, pH 5.0; read-out: BACE2 Ki
Observed Property: Ki (nM)

1 = CN1C(=N)N[C@](C)(c2cc(NC(=O)c3ccc(F)cn3)ccc2F)[C@]2(CCN(Cc3cnco3)C2)S1(=O)=O [Example 30]
2 = COC1CC(CN2CC[C@@]3(C2)[C@@](C)(c2cc(NC(=O)c4ccc(F)cn4)ccc2F)NC(=N)N(C)S3(=O)=O)C1 (stereo partly shown) [Example 34]
3 = COc1ccc(C(=O)Nc2ccc(F)c([C@@]3(C)NC(=N)N(C)S(=O)(=O)[C@@]34CCN(Cc3cncnc3)C4)c2)nc1 [Example 15]
4 = COc1ccc(C(=O)Nc2ccc(F)c([C@@]3(C)NC(=N)N(C)S(=O)(=O)[C@@]34CCN(CC3CCOC3)C4)c2)nc1 (stereo partly shown) [Example 9]
### Prompt Which order do these items fall in when sorted by Ki from largest to smallest? List labels; respect the requested ordering.
### Response 3, 2, 1, 4
(3: 17 nM, 2: 10 nM, 1: 5 nM, 4: 2 nM)

The reported measurements were obtained from patent US9489013B2.
